- test system: Thymidylate synthase (Mus musculus, UniProt P07607)
- assay explanation: Inhibition of thymidylate synthase, partially purified from L1210 mouse leukemia cells overexpressing TS
- Type: cell-free
- condition description: read-out: Ki app
pKi: −log10 of the molar value.

>  <smiles text>
Cc1nc2ccc(CN(C)c3ccc(C(=O)N[C@@H](CCC(=O)N[C@@H](CCC(=O)O)C(=O)O)C(=O)O)s3)cc2c(=O)[nH]1

>  <test system>
Thymidylate synthase (Mus musculus, UniProt P07607)

>  <pKi>
7.62

$$$$
>  <smiles text>
C#CCN(Cc1ccc2nc(C)nc(O)c2c1)c1ccc(C(=O)N[C@@H](CCC(=O)N[C@@H](CCC(=O)O)C(=O)O)C(=O)O)c(F)c1

>  <test system>
Thymidylate synthase (Mus musculus, UniProt P07607)

>  <pKi>
9.23

$$$$
>  <smiles text>
Cc1nc2ccc(CN(C)c3ccc(C(=O)N[C@@H](CCC(=O)N[C@@H](CCC(=O)N[C@@H](CCC(=O)N[C@@H](CCC(=O)N[C@@H](CCC(=O)N[C@@H](CCC(=O)O)C(=O)O)C(=O)O)C(=O)O)C(=O)O)C(=O)O)C(=O)O)s3)cc2c(=O)[nH]1

>  <test system>
Thymidylate synthase (Mus musculus, UniProt P07607)

>  <pKi>
8.43

$$$$
>  <smiles text>
C#CCN(Cc1ccc2nc(C)[nH]c(=O)c2c1)c1ccc(C(=O)N[C@@H](CCC(=O)O)C(=O)O)c(F)c1

>  <test system>
Thymidylate synthase (Mus musculus, UniProt P07607)

>  <pKi>
7.98

$$$$

----------
- test system: UniProt:P07607
- assay explanation: Compound was evaluated for inhibition of thymidylate synthase, partially purified from L1210 mouse leukemia cells that overproduce thymidylate synthase due to amplification of TS gene
- condition description: read-out: Ki app
pKi: −log10 of the molar value.

>  <compound>
Cc1nc2ccc(CN(C)c3ccc(C(=O)N[C@@H](CCC(=O)O)C(=O)O)s3)cc2c(=O)[nH]1 [RALTITREXED]

>  <pKi>
6.38

$$$$

----------
- test system: Thymidylate synthase (Mus musculus) (UniProt P07607)
- Sequence (P07607 whole entry, looked up): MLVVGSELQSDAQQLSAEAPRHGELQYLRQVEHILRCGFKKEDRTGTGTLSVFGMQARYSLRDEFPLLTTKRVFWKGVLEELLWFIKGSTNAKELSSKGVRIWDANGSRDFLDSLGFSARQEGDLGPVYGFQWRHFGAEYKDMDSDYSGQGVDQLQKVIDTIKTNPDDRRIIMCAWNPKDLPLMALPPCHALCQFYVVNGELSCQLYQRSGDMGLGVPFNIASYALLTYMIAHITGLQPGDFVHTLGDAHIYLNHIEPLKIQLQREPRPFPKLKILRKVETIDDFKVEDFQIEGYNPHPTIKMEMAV
- assay explanation: Compound was evaluated for fold increase in Thymidylate synthase (TS) inhibition
- Assay type: functional
Property: Fold increase; scope: individual molecules

>  <smiles text>
Cc1nc(O)c2cc(CN(C)c3ccc(C(=O)N[C@@H](CCC(=O)N[C@@H](CCC(=O)N[C@@H](CCC(=O)N[C@@H](CCC(=O)N[C@@H](CCC(=O)O)C(=O)O)C(=O)O)C(=O)O)C(=O)O)C(=O)O)s3)ccc2n1

>  <Fold increase>
110

$$$$
>  <smiles text>
C#CCN(Cc1ccc2nc(C)cc(Cl)c2c1)c1ccc(C(=O)N[C@@H](CCC(=O)N[C@@H](CCC(=O)N[C@@H](CCC(=O)O)C(=O)O)C(=O)O)C(=O)O)c(F)c1

>  <Fold increase>
64

$$$$
>  <smiles text>
Cc1nc(O)c2cc(CN(C)c3ccc(C(=O)N[C@@H](CCC(=O)N[C@@H](CCC(=O)O)C(=O)O)C(=O)O)s3)ccc2n1

>  <Fold increase>
17

$$$$

----------
Overview of recorded Fold increase for various molecules
- test system: UniProtKB P07607
- assay explanation: Compound was evaluated for fold increase in Thymidylate synthase (TS) inhibition
- Type: functional

>  <smiles text>
Cc1nc(O)c2cc(CN(C)c3ccc(C(=O)N[C@@H](CCC(=O)N[C@@H](CCC(=O)N[C@@H](CCC(=O)N[C@@H](CCC(=O)N[C@@H](CCC(=O)N[C@@H](CCC(=O)O)C(=O)O)C(=O)O)C(=O)O)C(=O)O)C(=O)O)C(=O)O)s3)ccc2n1

>  <Fold increase>
112

$$$$
>  <smiles text>
Cc1nc(O)c2cc(CN(C)c3ccc(C(=O)N[C@@H](CCC(=O)N[C@@H](CCC(=O)N[C@@H](CCC(=O)N[C@@H](CCC(=O)O)C(=O)O)C(=O)O)C(=O)O)C(=O)O)s3)ccc2n1

>  <Fold increase>
89

$$$$
>  <smiles text>
C#CCN(Cc1ccc2nc(C)nc(O)c2c1)c1ccc(C(=O)N[C@@H](CCC(=O)N[C@@H](CCC(=O)O)C(=O)O)C(=O)O)c(F)c1

>  <Fold increase>
18

$$$$
>  <smiles text>
Cc1nc(O)c2cc(CN(C)c3ccc(C(=O)N[C@@H](CCC(=O)N[C@@H](CCC(=O)N[C@@H](CCC(=O)O)C(=O)O)C(=O)O)C(=O)O)s3)ccc2n1

>  <Fold increase>
56

$$$$

----------
- test system: UniProt:P07607
- assay explanation: Inhibition of thymidylate synthase, partially purified from L1210 mouse leukemia cells overexpressing TS
- Assay type: cell-free
- condition description: read-out: Ki app
pKi: −log10 of the molar value.

>  <smiles text>
Cc1nc(O)c2cc(CN(C)c3ccc(C(=O)N[C@@H](CCC(=O)N[C@@H](CCC(=O)N[C@@H](CCC(=O)N[C@@H](CCC(=O)O)C(=O)O)C(=O)O)C(=O)O)C(=O)O)s3)ccc2n1

>  <pKi>
8.33

$$$$
>  <smiles text>
Cc1nc2ccc(CN(C)c3ccc(C(=O)N[C@@H](CCC(=O)N[C@@H](CCC(=O)N[C@@H](CCC(=O)O)C(=O)O)C(=O)O)C(=O)O)s3)cc2c(=O)[nH]1

>  <pKi>
8.12

$$$$
>  <smiles text>
C#CCN(Cc1ccc2nc(C)cc(Cl)c2c1)c1ccc(C(=O)N[C@@H](CCC(=O)O)C(=O)O)c(F)c1

>  <pKi>
7.20

$$$$
>  <smiles text>
C#CCN(Cc1ccc2nc(C)cc(Cl)c2c1)c1ccc(C(=O)N[C@@H](CCC(=O)N[C@@H](CCC(=O)N[C@@H](CCC(=O)O)C(=O)O)C(=O)O)C(=O)O)c(F)c1

>  <pKi>
9.00

$$$$
>  <smiles text>
Cc1nc2ccc(CN(C)c3ccc(C(=O)N[C@@H](CCC(=O)N[C@@H](CCC(=O)N[C@@H](CCC(=O)N[C@@H](CCC(=O)N[C@@H](CCC(=O)O)C(=O)O)C(=O)O)C(=O)O)C(=O)O)C(=O)O)s3)cc2c(=O)[nH]1

>  <pKi>
8.42

$$$$

Attribution: ChEMBL document CHEMBL1125391
